experiment: Non-specific binding (NSB) of drugs to ultrafiltration membrane filter, regenerated cellulose (Millipore Ultrafree-MC UFC 3LGC00, 10 k NMWL); assay type: physicochemical; conditions: regenerated cellulose membrane, no pretreatment; drug concentration 10 uM
Measured NSB (%) RC accompanies every entry in the list below.
// units = %; emit number, no label

# compound, reported property, obs value
measured = [
    ("COc1cc([C@@H]2c3cc4c(cc3[C@@H](O[C@@H]3O[C@@H]5CO[C@@H](C)O[C@H]5[C@H](O)[C@H]3O)[C@H]3COC(=O)[C@H]23)OCO4)cc(OC)c1O [Etoposide]", "NSB (%) RC", 91),
    ("CC[C@]1(O)C[C@@H]2CN(CCc3c([nH]c4ccccc34)[C@@](C(=O)OC)(c3cc4c(cc3OC)N(C)[C@H]3[C@@](O)(C(=O)OC)[C@H](OC(C)=O)[C@]5(CC)C=CCN6CC[C@]43[C@@H]65)C2)C1", "NSB (%) RC", 95),
    ("CC(C)NCC(O)COc1cccc2ccccc12 (stereo not shown)", "NSB (%) RC", 91),
]

Shifting focus to the compound that follows.
input: Answer with the recorded NSB (%) RC of C[C@]12CCC(=O)C=C1CC[C@@H]1[C@@H]2[C@@H](O)C[C@@]2(C)[C@H]1CC[C@]2(O)C(=O)CO [Hydrocortisone] only.
output: 87
